List of fold change (FC) values.
Target: Muscarinic acetylcholine receptor M1 (Homo sapiens)
Sequence (whole entry): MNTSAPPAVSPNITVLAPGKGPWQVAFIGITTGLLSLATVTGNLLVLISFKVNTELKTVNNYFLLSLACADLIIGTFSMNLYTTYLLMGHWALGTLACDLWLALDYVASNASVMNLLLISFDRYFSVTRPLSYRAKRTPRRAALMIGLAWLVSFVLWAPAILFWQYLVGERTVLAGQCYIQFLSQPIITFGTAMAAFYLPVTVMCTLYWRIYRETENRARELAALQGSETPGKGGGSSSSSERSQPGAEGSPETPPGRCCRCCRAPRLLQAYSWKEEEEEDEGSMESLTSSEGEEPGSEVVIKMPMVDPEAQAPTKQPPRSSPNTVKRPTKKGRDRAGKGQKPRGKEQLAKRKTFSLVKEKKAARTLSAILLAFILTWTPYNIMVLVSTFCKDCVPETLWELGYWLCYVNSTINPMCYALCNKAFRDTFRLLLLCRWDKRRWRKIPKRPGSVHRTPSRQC
Experiment: Positive allosteric modulation of human muscarinic M1 receptor assessed as leftward fold shift of acetylcholine-induced response at 30 uM relative to acetylcholine
Provide a numeric answer; units are not to be included.

Req: Entry CCN1CCC2(C1)C(=O)N(Cc1ccc(-c3cnn(C)c3)cc1F)c1ccccc12 (racemic) , system Muscarinic acetylcholine receptor M1 (Homo sapiens): what fold change (FC) was measured?
Resp: 8.3

New cases:
Req: Entry Cn1cc(-c2ccc(CN3C(=O)C4(CCN(CCF)C4)c4ccccc43)c(F)c2)cn1 (racemic) , system Muscarinic acetylcholine receptor M1 (Homo sapiens): what fold change (FC) was measured?
Resp: 13.5

Req: Moving on to Cn1cc(-c2ccc(CN3C(=O)C4(CCN(C5CCCC5)C4)c4ccccc43)c(F)c2)cn1 (single isomer, unassigned; 19g)
Resp: 28

Req: Moving on to Cn1cc(-c2ccc(CN3C(=O)C4(CCN(CC(F)F)C4)c4ccccc43)c(F)c2)cn1 (racemic)
Resp: 5.9

Req: Moving on to CN1CCC2(C1)C(=O)N(Cc1ccc(-c3cnn(C)c3)cc1F)c1ccccc12 (stereo in doubt; 19a)
Resp: 21

Req: Moving on to Cn1cc(-c2ccc(CN3C(=O)C4(OCCO4)c4ccccc43)c(F)c2)cn1
Resp: 27

Req: Moving on to Cn1cc(-c2ccc(CN3C(=O)C(=O)c4ccccc43)c(F)c2)cn1
Resp: 2.7

Req: Moving on to CN1CCC2(C1)C(=O)N(Cc1ccc(-c3cnn(C)c3)cc1F)c1ccccc12 (single isomer, unassigned)
Resp: 7.2

Req: Moving on to Cn1cc(-c2ccc(CN3C(=O)C4(CCN(c5ncccn5)C4)c4ccccc43)c(F)c2)cn1 (racemic)
Resp: 17.4

---

List of EC50 values.
molecular target: Muscarinic acetylcholine receptor M1 (Homo sapiens, UniProt P11229); test: Positive allosteric modulation of human muscarinic M1 receptor
Answer in µM, number only, no unit symbol.

See these solved cases before continuing.
Req: // EC50 lookup, key: CN1CCC2(C1)C(=O)N(Cc1ccc(-c3cnn(C)c3)cc1F)c1ccccc12 (single isomer, unassigned)
Resp: 2.9

Req: Moving on to CCN1CCC2(C1)C(=O)N(Cc1ccc(-c3cnn(C)c3)cc1F)c1ccccc12 (racemic)
Resp: 3.2

Req: Moving on to Cn1cc(-c2ccc(CN3C(=O)C4(CCN(CCF)C4)c4ccccc43)c(F)c2)cn1 (racemic)
Resp: 4.1

Req: Moving on to Cn1cc(-c2ccc(CN3C(=O)C4(CCN(C5CCCC5)C4)c4ccccc43)c(F)c2)cn1 (racemic)
Resp: 3.1

Req: Moving on to Cn1cc(-c2ccc(CN3C(=O)C4(CCN(C(=O)C5CCCCC5)C4)c4ccccc43)c(F)c2)cn1 (racemic)
Resp: 5

Req: Moving on to Cn1cc(-c2ccc(CN3C(=O)C4(CCN(C5CCCC5)C4)c4ccccc43)c(F)c2)cn1 (single isomer, unassigned; 19g)
Resp: 1.6

Req: Moving on to CN1CCC2(C1)C(=O)N(Cc1ccc(-c3cnn(C)c3)cc1F)c1ccccc12 (stereo in doubt; 19a)
Resp: 2.9

Req: Moving on to Cn1cc(-c2ccc(CN3C(=O)C4(CCN(c5ncccn5)C4)c4ccccc43)c(F)c2)cn1 (racemic)
Resp: 2.5

Req: Moving on to Cn1cc(-c2ccc(CN3C(=O)C4(OCCO4)c4ccccc43)c(F)c2)cn1
Resp: 2

Req: Moving on to Cc1nn(C)cc1-c1ccc(CN2C(=O)C3(CCN(C4CCCC4)C3)c3ccccc32)c(F)c1 (configuration not stated)
Resp: 3

Consider the additional compound presented here.
Req: // EC50 lookup, key: Cn1cc(-c2ccc(CN3C(=O)C4(CCN(C5CCCCCC5)C4)c4ccccc43)c(F)c2)cn1 (racemic)
Resp: 7.5
